system: Plasmodium falciparum; assay: GSK_TCMDC: Inhibition of Plasmodium falciparum Dd2 in whole red blood cells, using parasite LDH activity as an index of growth. Test compounds present at 2uM; format: functional
Readings of Inhibition for the listed molecules
quantity: Inhibition (%)

{"columns": ["molecule", "quantity", "value-measured"],
 "data": [
  ["CC(C)CNCc1ccc(-c2cccc(CN(C(=O)NC3CCCCC3)C3CCN(Cc4ccccc4)CC3)c2)cc1.O=C(O)C(F)(F)F", "Inhibition", 88],
  ["Br.COC(=O)c1ccc(CC(C)NCC(O)c2cccc(SC(F)(F)F)c2)cc1 (stereo unspecified)", "Inhibition", 72],
  ["N#Cc1ccc(N(CC(=O)NCCc2ccccc2)CC2CC2)c2ccccc12.O=C(O)C(F)(F)F", "Inhibition", 48],
  ["CC(=O)C1(c2ccccc2)CCN(CCC2(c3ccc(Cl)c(Cl)c3)CN(C(=O)C3CCCC3)CCO2)CC1 (stereo unspecified)", "Inhibition", 70],
  ["COc1cccc(C2(NC[C@@H](O)[C@H](Cc3ccccc3)NC(=O)c3ccccc3)CCCCC2)c1", "Inhibition", 67],
  ["O=C(NC1CCC(CN2CCC(c3c[nH]c4ccccc34)CC2)CC1)c1cc(-c2ccc(F)cc2F)ccc1O (stereo unspecified)", "Inhibition", 100],
  ["COc1cccc(C(=O)C2CC2CN2CC=C(c3c[nH]c4ccc(OC)nc34)CC2)c1 (stereo unspecified)", "Inhibition", 89],
  ["Cl.c1ccc2c(NCCCCCCNc3c4c(nc5ccccc35)CCCC4)c3c(nc2c1)CCCC3", "Inhibition", 51],
  ["Oc1ccc(Cl)cc1CN1CCC(CCOC(c2ccccc2)c2ccc(Cl)cc2)CC1 (stereo unspecified)", "Inhibition", 100],
  ["CC(=O)Nc1ccc(OCCN(CC(C)(C)C)c2ccc(C#N)c(C(F)(F)F)c2)c(Cl)c1", "Inhibition", 93],
  ["Brc1cnc(NC2=NCCN2)c(Br)c1.Cl", "Inhibition", 0]
]}

====

system: Plasmodium falciparum; experiment: GSK_TCMDC: Inhibition of Plasmodium falciparum Dd2 in whole red blood cells, using parasite LDH activity as an index of growth. Test compounds present at 2uM; type: functional

{"columns": ["molecule", "tested-system", "Inhibition / %"],
 "data": [
  ["C1=C(c2c[nH]c3ccccc23)CCN(Cc2ccccc2)C1", "Plasmodium falciparum", 80],
  ["COc1ccc2[nH]cc(C3CC4CCC(C3)N4CCC3CCN(C(=O)/C=C/c4ccc(Cl)c(Cl)c4)CC3)c2c1 (stereo not drawn)", "Plasmodium falciparum", 80],
  ["O=C(/C=C/c1ccc(Cl)cc1Cl)NC1CCC(CN2CCC(c3c[nH]c4ccccc34)CC2)CC1 (stereo not drawn)", "Plasmodium falciparum", 79]
]}

====

system: Plasmodium falciparum; assay: GSK_TCMDC: Inhibition of Plasmodium falciparum 3D7 in whole red blood cells, using parasite LDH activity as an index of growth. Test compounds present at 2uM; type: functional
quantity: Inhibition (%)

{"columns": ["compound", "tested-system", "value-measured"],
 "data": [
  ["Cl.O=C(c1cc(C(F)(F)F)cc(C(F)(F)F)c1)N1CCC(CCN2CCC3(CC2)C(=O)NCN3c2ccccc2)CC1Cc1ccc(Cl)c(Cl)c1 (stereo not given)", "Plasmodium falciparum", 100],
  ["Cc1csc(NC2=NCCN2)n1.Cl", "Plasmodium falciparum", 99],
  ["CCCCCCCc1cc(=O)c2ccccc2[nH]1", "Plasmodium falciparum", 96],
  ["CCCCCSc1cc(O)c(C(CNC)C(C)C)cc1OC.O=C(O)/C=C\\C(=O)O (stereo not given)", "Plasmodium falciparum", 100],
  ["CC1(C)CCCN(C(=O)Cc2ccc3c(c2)CCCC3)C1CN1CC=CC1.Cl (stereo not given)", "Plasmodium falciparum", 98],
  ["COc1cccc(CN2CCC(CCOC(c3ccccc3)c3ccc(Cl)cc3)CC2)c1O (stereo not given)", "Plasmodium falciparum", 99],
  ["CN1C2CCC1c1cc(NC(=O)c3cc(-c4ccc(Cl)cc4)cs3)ccc12.O=C(O)C(F)(F)F (stereo not given)", "Plasmodium falciparum", 90],
  ["NCc1cccc(-c2cccc(CN(C(=O)Nc3ccccc3)C3CCN(Cc4ccccc4)CC3)c2)c1.O=C(O)C(F)(F)F", "Plasmodium falciparum", 99],
  ["CCOc1ccc(Br)cc1/C=C/C(=O)Nc1ccc2c(c1)C1CCC2N1C.O=C(O)C(F)(F)F (stereo not given)", "Plasmodium falciparum", 89],
  ["CCN(CC)CCN1C(=O)C(O)(c2ccccc2Cl)c2c1cc(C#N)cc2C(F)(F)F (stereo not given)", "Plasmodium falciparum", 88],
  ["Cn1nc(-c2ccc(S(=O)(=O)N3CCC(CN4CCC(c5c[nH]c6ccccc56)CC4)CC3)s2)cc1C(F)(F)F", "Plasmodium falciparum", 93],
  ["O=C(NC1CCC(CN2CCC(c3c[nH]c4ccccc34)CC2)CC1)c1cc(-c2ccc(F)cc2F)ccc1O (stereo not given)", "Plasmodium falciparum", 100],
  ["O=C(C=Cc1ccccc1Br)NC1CCC(CN2CCC(c3c[nH]c4ccccc34)CC2)CC1 (stereo not given)", "Plasmodium falciparum", 100],
  ["O=C(/C=C/c1ccc(Cl)c(Cl)c1)NCCC1CCC(N2CCC(c3c[nH]c4ccccc34)CC2)CC1 (stereo not given)", "Plasmodium falciparum", 100],
  ["O=C(/C=C/c1ccc(Cl)c(Cl)c1)NC1CCC(N2CCC(c3c[nH]c4ccccc34)CC2)CC1 (stereo not given)", "Plasmodium falciparum", 100]
]}
